Here the recorded Molar absorptivities at the longer-wavelength band maxima, ε is given for each entry.
# Test Protocol: Complex formation with Fe^3+, spectrophotometric titration
# Assay type: physicochemical
# Condition Summary: free ligand
Result Type: Molar absorptivities at the longer-wavelength band maxima, ε

chemical_smiles=CN(C)C(=O)Oc1ccc(F)cc1/C=C/c1cccs1 obs_value="10,440 M^–1cm^–1"
chemical_smiles=COc1ccc(/C=C/c2cccs2)c(OC(=O)N(C)C)c1 obs_value="16,330 M^–1cm^–1"
chemical_smiles=Cc1ccc(/C=C/c2ccccc2OC(=O)N(C)C)s1 obs_value="19,410 M^–1cm^–1"
chemical_smiles=CN(C)C(=O)Oc1ccccc1/C=C/c1cccs1 obs_value="22,570 M^–1cm^–1"

---

# Subject Of Test: acetylcholinesterase (AChE) (Electrophorus electricus, UniProt O42275)
# Construct: purchased Sigma Aldrich (St. Louis, MO, USA)
# Sequence (O42275 24-633): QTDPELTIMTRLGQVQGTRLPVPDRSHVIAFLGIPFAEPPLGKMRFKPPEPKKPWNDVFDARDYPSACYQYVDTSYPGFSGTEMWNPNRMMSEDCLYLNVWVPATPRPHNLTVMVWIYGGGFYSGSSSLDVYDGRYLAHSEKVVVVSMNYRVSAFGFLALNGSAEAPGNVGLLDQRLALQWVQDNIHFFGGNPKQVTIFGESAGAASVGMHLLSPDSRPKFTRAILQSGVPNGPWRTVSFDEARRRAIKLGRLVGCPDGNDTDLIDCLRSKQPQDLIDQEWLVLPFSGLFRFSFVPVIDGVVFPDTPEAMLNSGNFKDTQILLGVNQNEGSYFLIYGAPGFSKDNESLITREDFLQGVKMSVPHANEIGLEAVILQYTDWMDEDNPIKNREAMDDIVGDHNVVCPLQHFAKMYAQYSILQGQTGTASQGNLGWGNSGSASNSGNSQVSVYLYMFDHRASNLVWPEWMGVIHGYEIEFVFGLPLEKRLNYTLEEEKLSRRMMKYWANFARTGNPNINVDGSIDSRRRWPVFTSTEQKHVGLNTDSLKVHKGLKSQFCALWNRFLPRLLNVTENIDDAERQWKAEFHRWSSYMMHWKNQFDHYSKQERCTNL
# Test Protocol: biochemical
# Parameters: species or system electric eel
# Condition Summary: read-out: AChE Inhibition (%)
Result Type: inhibition at 100 µM (%)

compound="COc1ccc(/C=C/c2cccs2)c(OC(=O)N(C)C)c1 [Compound 6]" result_type="inhibition at 100 µM" obs_value=1
compound="CN(C)C(=O)Oc1ccccc1/C=C/c1cccs1 [Compound 1]" result_type="inhibition at 100 µM" obs_value=30
compound="CN(C)C(=O)Oc1cccc(/C=C/c2cccs2)c1 [Compound 11]" result_type="inhibition at 100 µM" obs_value=19
compound="Cc1cnc(/C=C/c2cc(Cl)ccc2OC(=O)N(C)C)s1 [Compound 13]" result_type="inhibition at 100 µM" obs_value=37.5
compound="Cc1ccc(OC(=O)N(C)C)c(/C=C/c2cccs2)c1 [Compound 2]" result_type="inhibition at 100 µM" obs_value=16.7
compound="Cc1cnc(/C=C/c2cc(F)ccc2OC(=O)N(C)C)s1 [Compound 12]" result_type="inhibition at 100 µM" obs_value=23.9
compound="Cc1ccc(/C=C/c2cc(F)ccc2OC(=O)N(C)C)s1 [Compound 9]" result_type="inhibition at 100 µM" obs_value=23.6
compound="Cc1ccc(/C=C/c2cc(Cl)ccc2OC(=O)N(C)C)s1 [Compound 10]" result_type="inhibition at 100 µM" obs_value=27
compound="Cc1ccc(OC(=O)N(C)C)c(/C=C/c2ccc(C)s2)c1 [Compound 8]" result_type="inhibition at 100 µM" obs_value=25.2
compound="Cc1ccc(/C=C/c2ccccc2OC(=O)N(C)C)s1 [Compound 7]" result_type="inhibition at 100 µM" obs_value=17.7

---

# Subject Of Test: acetylcholinesterase (AChE) (Electrophorus electricus, UniProt O42275)
# Construct: purchased Sigma Aldrich (St. Louis, MO, USA)
# Test Protocol: biochemical
# Set-up: species or system electric eel
# Condition Summary: read-out: AChE Inhibition (%)
Here the recorded inhibition at 100 µM is given for each entry.
Result Type: inhibition at 100 µM (%)

molecule="COc1ccc(OC(=O)N(C)C)c(/C=C/c2cccs2)c1 [Compound 5]" result_type="inhibition at 100 µM" unit_string=% obs_value=11
molecule="CN(C)C(=O)Oc1ccc(Cl)cc1/C=C/c1cccs1 [Compound 4]" result_type="inhibition at 100 µM" unit_string=% obs_value=35
molecule="CN(C)C(=O)Oc1ccc(F)cc1/C=C/c1cccs1 [Compound 3]" result_type="inhibition at 100 µM" unit_string=% obs_value=12.6
